Attribution: ChEMBL document CHEMBL5050855

System: Kasumi 1
procedure.text: Antiproliferative activity against human Kasumi 1 cells after 72 hrs by MTT assay
Assay type: functional, cell-based
condition.description: Kasumi 1, 72 h
value.type: pIC50
pIC50 here: minus log base 10 of the concentration, concentration in moles per litre.

Q: Query: pIC50; subject: `Nc1ccc(Cn2ccc3c4c(N)nc(N)nc4ccc32)cc1`
Result: 7.88

* * *

System: HeLa
procedure.text: Antiproliferative activity against human HeLa cells after 72 hrs by MTT assay
Assay type: functional, cell-based
value.type: IC50 (µM)
Response body: numeric value in µM, unit text excluded.

Q: Query: IC50; subject: `Nc1ccc(Cn2ccc3c4c(N)nc(N)nc4ccc32)cc1`
Result: 0.064
